- ASSAY SYSTEM: SRSF1 RRM1+2 (ASF/SF2) (UniProt Q07955 1-196)
- Sequence (Q07955 1-196): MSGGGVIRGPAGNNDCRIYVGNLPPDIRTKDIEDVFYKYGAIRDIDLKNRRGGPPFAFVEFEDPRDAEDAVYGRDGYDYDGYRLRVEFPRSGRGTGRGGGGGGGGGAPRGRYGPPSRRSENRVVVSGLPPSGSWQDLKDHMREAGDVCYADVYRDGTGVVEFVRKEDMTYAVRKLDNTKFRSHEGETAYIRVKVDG
- PROCEDURE DETAILS: competition
pKd: −log10 of the molar value.
ATTRIBUTE MEASURED: pKd

Query: pKd lookup needed for GGGGCCGGGGCCGGGGCCGGGGCC (ssRNA) [(G4C2)4 unlabeled, folded without K+] , thanks.
Reply: > 7.68
